All values here come from PubChem BioAssay AID686978.

Test: qHTS for Inhibitors of human tyrosyl-DNA phosphodiesterase 1 (TDP1): qHTS in cells in absence of CPT; further: nearly all actives have a fitted effect of over 55% in size; further: potency means the concentration at half of the fitted maximal effect
Conditions: DT40 Tdp1-/- hTDP1 cells, no CPT, ATP luminescence, 48 h
Among all 420,000 compounds or so, about 64,000 (15%) were called active. About 27% were inconclusive and are not listed. These entries were drawn from the full list.
endpoint-label: Potency

In the examples that follow, each entry is paired with its recorded Potency.
// Potency lookup, key: `Cc1ccc(CCCOC(=O)C[N+]2(C)CCCCC2)cc1`
inactive

Ok, now `Cc1nnc(Nc2ccccc2F)s1`
inactive

Ok, now `CCOC(=O)Cc1ccc(NC(=O)Nc2c[nH]c(=O)[nH]c2=O)cc1`
inactive

Ok, now `COc1ccccc1CNc1cc(-c2ccccc2CN(C)C)ncn1`
inactive

Ok, now `COc1ccc(N2CCN(CCNC(=O)c3nnc(Cc4c(F)cccc4Cl)o3)CC2)cc1`
inactive

Ok, now `CCC(=O)Nc1ccc(C(=O)CSc2nnc(CNc3ccc(Cl)cc3)o2)cc1OC`
12.6 µM (active)

Ok, now `CN(Cc1ccc(F)cc1)C(=O)CN1C(=O)c2ccccc2S1(=O)=O`
inactive

Ok, now Cc1nn(-c2ccccc2)nc1C(=O)OCC(=O)N1CCCCC1C (configuration not stated)
inactive

Further cases:
// Potency lookup, key: COC(=O)C1(C)NC(c2ccccc2OC)C2C(=O)N(c3ccccc3)C(=O)C21 (configuration not stated)
inactive

Ok, now CN(C(=O)CN1C(=O)NC(C)(CCc2ccccc2)C1=O)c1ccccc1 (configuration not stated)
inactive

Ok, now `CCOC(=O)COc1cc(OCC(=O)OCC)c2c(=O)cc(-c3ccccc3)oc2c1`
inactive

Ok, now CC(CC(=O)N1CCN(S(=O)(=O)c2ccccc2)CC1)n1cncn1 (configuration not stated)
inactive

Ok, now `CN(Cc1ccco1)c1cc(-c2ccccc2C(F)(F)F)ncn1`
inactive
